The binders listed here are annotated with their Relative KD.
experimental_system: T1, recombinant human EphA5 (rhEphA5) antigen (human, UniProt P54756 25-573)
T1 construct: also called human EphA5 (R and D systems, Cat. No. 3036-A5); recombinant EphA5
T1 sequence (P54756 25-573 limits assumed): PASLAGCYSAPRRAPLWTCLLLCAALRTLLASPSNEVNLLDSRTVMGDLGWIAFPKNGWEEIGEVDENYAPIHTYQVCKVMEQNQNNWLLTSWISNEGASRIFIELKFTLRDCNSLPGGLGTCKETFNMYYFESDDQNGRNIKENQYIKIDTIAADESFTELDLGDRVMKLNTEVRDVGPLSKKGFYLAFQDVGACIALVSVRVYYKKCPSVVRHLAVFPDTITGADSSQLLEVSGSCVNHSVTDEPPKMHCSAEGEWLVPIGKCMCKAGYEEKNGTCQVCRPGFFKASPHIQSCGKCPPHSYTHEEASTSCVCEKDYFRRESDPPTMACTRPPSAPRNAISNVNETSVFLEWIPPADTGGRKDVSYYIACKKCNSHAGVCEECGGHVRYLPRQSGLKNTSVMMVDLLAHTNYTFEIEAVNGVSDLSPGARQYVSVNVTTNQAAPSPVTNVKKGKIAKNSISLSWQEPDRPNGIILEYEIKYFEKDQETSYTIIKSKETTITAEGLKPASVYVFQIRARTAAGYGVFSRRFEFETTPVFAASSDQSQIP
measurement_protocol: SPR single-cycle kinetics (Biacore T200), IgG from HEK supernatant captured on anti-human IgG CM5 chip, rhEphA5 as analyte, 1:1 fit
Design: reference not given here

binder | Relative KD
VH5/VK4 humanized 11C12 antibody (antibody, human IgG1, kappa, V domains shown, Human IgG1/kappa; lead variant, tested as HEK supernatant and as protein purified from CHO; also called H5K4) VH: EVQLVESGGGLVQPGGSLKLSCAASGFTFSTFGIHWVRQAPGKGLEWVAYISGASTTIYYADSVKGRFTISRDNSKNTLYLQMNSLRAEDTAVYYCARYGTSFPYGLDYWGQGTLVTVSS VL: DIVMTQSPDSLAVSLGERATINCKSSQSVDYDGDSYMNWYQQKPGKAPKLLIYGASNLESGIPDRFSGSGSGTDFTLTISRLEPEDAASYYCQQSNEDPFTFGQGTKLEIKR | 0.78
VH6/VK4 humanized 11C12 antibody (antibody, human IgG1, kappa, V domains shown, Human IgG1/kappa; tested as HEK293 EBNA supernatant; also called H6K4) VH: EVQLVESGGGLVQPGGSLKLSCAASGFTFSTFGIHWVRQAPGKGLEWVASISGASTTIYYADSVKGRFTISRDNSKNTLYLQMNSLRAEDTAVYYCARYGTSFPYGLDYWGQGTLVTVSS VL: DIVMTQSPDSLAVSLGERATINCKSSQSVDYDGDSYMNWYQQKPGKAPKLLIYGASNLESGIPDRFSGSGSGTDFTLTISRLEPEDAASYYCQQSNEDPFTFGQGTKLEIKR | 7.34

Switching to the query record.
### Prompt Any idea what Relative KD was measured for VH1/VK0 (antibody, human IgG1, kappa, V domains shown, tested as HEK supernatant; also called control antibody (humanized VH1 heavy chain with chimeric light chain)) VH: EVTLVESGGGLVQPGGSRKLSCAASGFTFSTFGIHWVRQAPGKGLEWVAYISGASTTIYYADTVKGRFTISRDNSKNTLYLQMNSLRSEDTAMYYCARYGTSFPYGLDYWGQGTSVTVSS VL: DIVMTQSPGSLAVSLGQRATISCKASQSVDYDGDSYMNWYQQKPGQPPKLLIYGASNLESGIPARFSGSGSGTDFTLNIHPVEEEDAASYYCQQSNEDPFTFGSGTKLEIKR ?
### Response 0.78

Recorded values, source patent US20240115722A1.
